Data origin: patent US20180334496A1

Reported Kd values for a set of binders
# System under test: T1, human complement factor D purified from serum (human, UniProt P00746 26-253)
# T1 construct: serum-purified (CompTech); also called hCFD-Comptech; CFD
# T1 sequence (P00746 26-253): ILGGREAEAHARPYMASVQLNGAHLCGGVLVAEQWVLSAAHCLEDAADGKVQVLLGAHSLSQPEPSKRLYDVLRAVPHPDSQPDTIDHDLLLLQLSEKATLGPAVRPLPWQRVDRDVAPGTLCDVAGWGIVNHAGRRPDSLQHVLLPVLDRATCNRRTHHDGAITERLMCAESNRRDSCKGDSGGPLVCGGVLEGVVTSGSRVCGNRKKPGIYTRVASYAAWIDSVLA
# Assay name: SPR MX96
Write it as a number; the unit nM goes unstated.

[
  {
    "Binder": "KCD011 (antibody, V domains shown) VH: EVKLVESGGGLVQPGGSLKLSCAASGFTFSSNTMSWVRQTPEKRLEWVAYITNGGGSTYYPDTVKGRFTISRDNARNTLYLQMSSLKSEDTAMYYCARHDYYTMDYWGQGTSVTVSS VL: DIQMTQSPSSLSASLGGKVTITCKASQDINKYIAWYQHKPGKGPRLLIHYTSTLQPGIPSRFSGSGSGRDYSFSISNLEPEDIATYYCLQYDNLLYTFGGGTKLEIK",
    "Kd / nM": 77
  }
]

Moving on to another binder below.
Quick note, Kd for KCD063 (antibody, V domains shown) VH: EVKLVESGGGLVQPGGSLKLSCAASGFIFSSYIMSWVRQTPEKRLEWVAYITNGGGSTYYPDTVKGRLTISRDNAKNTLYLQMSSLKSEDTAMYYCVRHAHYYAMDYWGQGTSVTVSS VL: DIQMTQSPSSLSASLGGKVTITCKASQDINKYITWYQHKPGKGPRLLIHYTSTLQPGIPSRFSGSGSGRDYSFSISNLEPEDIATYYCLQYDNLLYTFGGGTKLEIK landed at 33
